So I've got a bunch of compounds here, and I need their pKi values.
- assay_name: Inhibition of purified beta-lactamase CTX-M-14 (unknown origin) using nitrocefin as substrate preincubated for 10 mins followed by substrate addition
pKi: −log10 of the molar value.

Exercise: May I ask what pKi has been recorded for C=CCON(C(=O)c1ccc([N+](=O)[O-])cc1)C1CC(=O)N1SC (racemic) ?
Solution: 6.19

Exercise: Entry to check: CC(=O)O[C@@H]1NC(=O)[C@H]1NC(=O)COc1ccccc1
Solution: < 3.80

Exercise: Entry to check: CSN1C(=O)[C@@H](NC(=O)Cc2ccccc2)[C@@H]1N(OCc1ccccc1)C(=O)c1ccccc1 (racemic)
Solution: < 3.80

Exercise: Entry to check: CCOc1ccc(C(=O)N(OCc2ccccc2)C2CC(=O)N2)cc1 (racemic)
Solution: < 3.80

Exercise: Entry to check: CC(C)(C)[Si](C)(C)N1C(=O)CC1N(OCc1ccccc1)C(=O)c1ccccc1 (racemic)
Solution: < 3.80

Exercise: Entry to check: O=C(Cc1ccccc1)N[C@@H]1C(=O)N[C@H]1N(OCc1ccccc1)C(=O)c1ccccc1
Solution: < 3.80

Exercise: Entry to check: CSN1C(=O)[C@H]([C@@H](C)O[Si](C)(C)C(C)(C)C)[C@H]1N(OCc1ccccc1)C(=O)c1ccccc1
Solution: 6.40

Exercise: Entry to check: CSN1C(=O)[C@@H](NC(=O)COc2ccccc2)[C@@H]1N(OCc1ccccc1)C(=O)c1ccccc1 (racemic)
Solution: < 3.80

Required: pKi, one value per compound below.
1. CSN1C(=O)CC1N(OCc1ccccc1)C(=O)c1ccc([N+](=O)[O-])cc1 (racemic)
2. CC(C)(C)[Si](C)(C)ON(C(=O)c1ccccc1)[C@@H]1NC(=O)[C@H]1NC(=O)COc1ccccc1 (racemic)
3. CSN1C(=O)[C@@H](NC(=O)COc2ccccc2)[C@@H]1N(OCc1ccccc1)C(=O)c1cc([N+](=O)[O-])cc(C(F)(F)F)c1 (racemic)
4. O=C(COc1ccccc1)N[C@@H]1C(=O)N[C@H]1N(OCc1ccccc1)C(=O)c1ccccc1

Solution:
1. < 3.80
2. < 3.80
3. < 3.80
4. 7.30

Taken from ChEMBL document CHEMBL3785040.
